Some compounds, each annotated with its measured Dead.
Tested on: Northern corn root worm adults (diabrotica longiscornis)
protocol.details: Spray test on Northern corn root worm adults
Type: in vivo
reported.conditions: insects sprayed, inspected after 24 hours; amounts in grams/litre

{"compound": "O=C(O)CC(O)(CC(=O)O)C(=O)O [Sample 19, citric acid]", "Dead": 2}
{"compound": "CC(=O)O [Sample 15, acetic acid]", "Dead": 0}
{"compound": "CC(=O)O [Sample 18, acetic acid]", "Dead": 3}
{"compound": "CC(=O)O [Sample 1, acetic acid]", "Dead": 0}
{"compound": "O=C(O)CC(O)(CC(=O)O)C(=O)O [Sample 2, citric acid]", "Dead": 0}

Data credit: patent US6586470B1
